Every entry's value here was drawn from paper PMC11079029.

- assay target: T1, PRPF40A WW12 (tandem WW domains, residues 141–236) (Homo sapiens, UniProt O75400)
- T1 construct: WW12 141–236, WW12long 141–248, and N-ext-WW12 56–236; 6xHis-TEV site (N, cleaved yes); made in house; host or cells: Escherichia coli BL21(DE3)
- T1 sequence (O75400 141-236): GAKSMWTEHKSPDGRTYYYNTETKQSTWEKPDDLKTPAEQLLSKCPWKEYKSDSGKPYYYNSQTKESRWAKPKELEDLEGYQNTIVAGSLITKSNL
- assay name: ITC of PRPF40A WW12 with GB1-tagged proline-rich peptides and constructs
- Assay type: binding
- assay context: source data of Fig. 4C,D; ITC as E4; individual value 2; read-out: Kd (mM), Individual values
assay endpoint: Kd (mM)
Numbers only, in mM.

molecule	Kd / mM
SF1 Pro BCD: GB1-tagged SF1 construct, residues 468–639 (protein, left off: His6, N-terminal, state not stated | GB1, N-terminal, kept) GMMPPPPMGMMPPPPPPPSGQPPPPPSGPLPPWQQQQQQPPPPPPPSSSMASSTPLPWQQNTTTTTTSAGTGSIPPWQQQQAAAAASPGAPQMQGNPTMVPLPPGVQPPLPPGAPPPPPPPPPGSAGMMYAPPPPPPPPMDPSNFVTMMGMGVAGMPPFGMPPAPPPPPPQN	0.00436

With those in mind, consider the next molecule.
Which Kd reading was recorded for the molecule SF1 Pro BC: GB1-tagged SF1 construct, residues 468–594 (protein, left off: His6, N-terminal, state not stated | GB1, N-terminal, kept) GMMPPPPMGMMPPPPPPPSGQPPPPPSGPLPPWQQQQQQPPPPPPPSSSMASSTPLPWQQNTTTTTTSAGTGSIPPWQQQQAAAAASPGAPQMQGNPTMVPLPPGVQPPLPPGAPPPPPPPPPGSAG ? 0.00776
